biological target: hNav1.7 (Homo sapiens); assay: Tritiated compound competitive binding to membranes from cells heterologously expressing hNav1.7 and the β1 subunit (LBA); conditions: read-out: NaV1.7 (LBA)
Sequence (Q15858 whole entry): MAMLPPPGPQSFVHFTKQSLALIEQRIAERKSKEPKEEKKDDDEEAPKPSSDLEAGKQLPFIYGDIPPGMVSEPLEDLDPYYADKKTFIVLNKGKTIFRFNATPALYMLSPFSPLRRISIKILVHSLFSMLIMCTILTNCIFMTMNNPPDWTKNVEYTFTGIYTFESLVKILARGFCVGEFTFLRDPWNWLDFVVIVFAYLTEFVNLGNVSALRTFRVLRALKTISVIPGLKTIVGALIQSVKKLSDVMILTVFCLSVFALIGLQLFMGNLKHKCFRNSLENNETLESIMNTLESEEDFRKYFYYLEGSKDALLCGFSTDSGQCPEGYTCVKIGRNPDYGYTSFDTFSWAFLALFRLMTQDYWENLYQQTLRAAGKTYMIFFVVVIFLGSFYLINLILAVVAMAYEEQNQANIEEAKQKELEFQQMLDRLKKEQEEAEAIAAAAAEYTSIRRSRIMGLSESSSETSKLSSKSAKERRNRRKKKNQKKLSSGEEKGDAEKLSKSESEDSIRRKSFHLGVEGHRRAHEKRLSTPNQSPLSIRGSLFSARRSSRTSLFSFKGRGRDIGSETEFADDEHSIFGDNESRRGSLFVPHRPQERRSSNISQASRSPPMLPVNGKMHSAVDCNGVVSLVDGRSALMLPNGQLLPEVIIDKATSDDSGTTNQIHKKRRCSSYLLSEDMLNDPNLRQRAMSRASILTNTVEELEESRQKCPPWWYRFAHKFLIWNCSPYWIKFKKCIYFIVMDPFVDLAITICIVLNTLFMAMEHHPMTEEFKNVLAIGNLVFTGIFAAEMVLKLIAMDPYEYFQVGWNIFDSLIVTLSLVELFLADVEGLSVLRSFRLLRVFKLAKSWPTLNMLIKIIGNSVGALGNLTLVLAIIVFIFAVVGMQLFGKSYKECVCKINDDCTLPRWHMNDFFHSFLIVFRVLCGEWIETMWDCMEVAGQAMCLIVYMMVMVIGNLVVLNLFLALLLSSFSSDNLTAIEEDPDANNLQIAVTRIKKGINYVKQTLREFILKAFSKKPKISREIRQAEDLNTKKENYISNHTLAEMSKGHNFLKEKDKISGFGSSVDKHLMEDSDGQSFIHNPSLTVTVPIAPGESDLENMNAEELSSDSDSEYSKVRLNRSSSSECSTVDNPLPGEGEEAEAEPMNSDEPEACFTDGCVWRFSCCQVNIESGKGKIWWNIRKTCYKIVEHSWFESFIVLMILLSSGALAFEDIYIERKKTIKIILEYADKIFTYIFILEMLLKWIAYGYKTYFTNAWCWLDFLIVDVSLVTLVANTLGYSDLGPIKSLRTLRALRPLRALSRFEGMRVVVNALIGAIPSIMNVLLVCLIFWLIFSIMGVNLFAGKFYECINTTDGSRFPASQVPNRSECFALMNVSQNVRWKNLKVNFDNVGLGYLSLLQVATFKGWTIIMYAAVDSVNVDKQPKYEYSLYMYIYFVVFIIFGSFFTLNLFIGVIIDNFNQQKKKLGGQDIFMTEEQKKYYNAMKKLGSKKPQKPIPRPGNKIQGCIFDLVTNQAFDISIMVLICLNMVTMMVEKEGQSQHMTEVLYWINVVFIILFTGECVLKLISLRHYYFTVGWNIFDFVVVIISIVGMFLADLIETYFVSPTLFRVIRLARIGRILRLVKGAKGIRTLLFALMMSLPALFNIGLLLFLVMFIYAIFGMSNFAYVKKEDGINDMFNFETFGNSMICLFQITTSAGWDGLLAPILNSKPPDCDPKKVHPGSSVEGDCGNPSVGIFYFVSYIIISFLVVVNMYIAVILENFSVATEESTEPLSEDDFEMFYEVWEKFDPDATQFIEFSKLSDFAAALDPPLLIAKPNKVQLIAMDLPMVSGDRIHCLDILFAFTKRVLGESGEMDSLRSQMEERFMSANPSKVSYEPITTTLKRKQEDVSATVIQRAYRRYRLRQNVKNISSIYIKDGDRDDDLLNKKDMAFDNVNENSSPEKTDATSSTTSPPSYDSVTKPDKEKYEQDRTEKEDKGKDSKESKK
Sequence (Q07699 19-218 partner): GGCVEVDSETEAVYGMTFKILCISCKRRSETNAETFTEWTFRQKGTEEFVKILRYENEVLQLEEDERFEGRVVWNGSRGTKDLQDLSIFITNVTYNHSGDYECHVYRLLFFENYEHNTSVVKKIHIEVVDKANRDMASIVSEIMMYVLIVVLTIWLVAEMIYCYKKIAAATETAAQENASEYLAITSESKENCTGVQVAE
Provide the reported IC50 of each item.

Query string: Find the measured IC50 of O=C(O)[C@@H]1CCC[C@H]1C(=O)c1cc(C2CC2)c(COc2cc(Cl)cc(Cl)c2)cc1F (relative stereo) and report it.
Result string: 21 nM

Query string: Find the measured IC50 of `O=C(O)[C@@H]1CCCC[C@H]1C(=O)c1cc(C2CC2)c(OCC23CC4CC(CC(C4)C2)C3)cc1F` and report it.
Result string: 55 nM

Query string: Find the measured IC50 of O=C(O)[C@@H]1CC[C@H]1C(=O)c1cc(C2CC2)c(OCC23CC4CC(CC(C4)C2)C3)cc1F (racemic) and report it.
Result string: 760 nM

Query string: Find the measured IC50 of `C[C@@H](c1cc(Cl)cc(Cl)c1)N1CCC(COc2cc(F)c(C(=O)[C@@H]3CCC[C@H]3C(=O)O)cc2C2CC2)CC1` and report it.
Result string: 51 nM

Sourced from patent US11130726B2
